# measured.on: CYP2C19 (Homo sapiens)
# Construct: purchased Thermo Scientific P2864
# Sequence (P33261 whole entry): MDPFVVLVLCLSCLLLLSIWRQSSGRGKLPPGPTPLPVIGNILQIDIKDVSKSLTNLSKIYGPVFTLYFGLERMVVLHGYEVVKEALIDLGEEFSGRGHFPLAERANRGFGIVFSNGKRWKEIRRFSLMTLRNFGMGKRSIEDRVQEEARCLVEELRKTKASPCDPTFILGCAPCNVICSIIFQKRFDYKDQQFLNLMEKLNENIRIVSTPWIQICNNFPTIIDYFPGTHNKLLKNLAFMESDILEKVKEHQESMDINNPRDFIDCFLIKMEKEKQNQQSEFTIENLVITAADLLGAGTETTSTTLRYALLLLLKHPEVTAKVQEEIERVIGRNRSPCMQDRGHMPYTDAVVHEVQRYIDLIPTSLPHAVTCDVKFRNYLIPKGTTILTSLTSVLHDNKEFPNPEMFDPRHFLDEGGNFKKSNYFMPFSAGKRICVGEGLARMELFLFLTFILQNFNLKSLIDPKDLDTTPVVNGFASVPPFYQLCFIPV
# test.details: High-throughput fluorometric CYP2C19 inhibition assay (Vivid CYP2C19 Blue Screening Kit, EOMCC substrate, endpoint mode)
# Type: biochemical
# measurement.parameters: recombinant human CYP2C19 BACULOSOMES, eight concentrations, duplicate, nonlinear regression
pIC50: −log10 of the molar value.
attribute.measured: pIC50

molecule | reported.result
COc1ccc2[nH]c([S+]([O-])Cc3ncc(C)c(OC)c3C)nc2c1 (centres unmarked) [Omeprazole] | 5.85

a: COc1ccnc(C[S+]([O-])c2nc3ccc(OC(F)F)cc3[nH]2)c1OC (centres unmarked) [Pantoprazole]
b: Cc1c(OCC(F)(F)F)ccnc1C[S+]([O-])c1nc2ccccc2[nH]1 (centres unmarked) [Lansoprazole]
Request: I'm curious whether a or b has the smaller pIC50 number. Which is it? Output the label that corresponds to your choice.
Response: a
(a: 5.45, b: 5.78)
